# system.under.test: UniProt:P05177
# Sequence (P05177 whole entry): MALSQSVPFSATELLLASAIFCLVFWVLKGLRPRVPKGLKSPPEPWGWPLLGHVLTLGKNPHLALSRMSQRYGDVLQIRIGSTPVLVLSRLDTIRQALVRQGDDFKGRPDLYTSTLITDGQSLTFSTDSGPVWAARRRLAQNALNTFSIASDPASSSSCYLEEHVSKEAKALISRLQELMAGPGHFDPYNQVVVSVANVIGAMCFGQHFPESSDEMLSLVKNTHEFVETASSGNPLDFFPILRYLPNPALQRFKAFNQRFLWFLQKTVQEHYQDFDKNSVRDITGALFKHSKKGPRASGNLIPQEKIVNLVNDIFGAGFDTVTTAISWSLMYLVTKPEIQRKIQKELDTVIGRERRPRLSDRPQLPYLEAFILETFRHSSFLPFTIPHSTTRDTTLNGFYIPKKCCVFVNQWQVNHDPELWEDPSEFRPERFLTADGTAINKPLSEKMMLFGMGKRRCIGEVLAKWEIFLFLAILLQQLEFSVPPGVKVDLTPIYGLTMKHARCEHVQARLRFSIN
property.name: IC50 (µM)

- substance.smiles: "O=C([O-])c1cccc(Cc2cc(Cl)ccc2OCc2ccc(F)cc2Cl)n1.[Na+]"
  property.name: "IC50"
  unit.string: "µM"
  observed.measurement: 61

P = O=C(O)c1cccc(Cc2cc(Cl)ccc2OCc2ccc(Cl)cc2Cl)n1
Q = O=C([O-])c1cccc(Cc2cc(Cl)ccc2OCc2ccc(Cl)cc2F)n1.[Na+]
Prompt: Field: lower IC50 | Options: P / Q To answer, give the label that identifies your chosen option.
Completion: Q
(Q: 20 µM, P: 32 µM)

====

# assay.summary: Volume of distribution at steady state in Beagle dog at 1 mg/kg administered by intravenous infusion for 1 hr
# Format: ADME, organism-based, Canis lupus familiaris
# Design: dose 1 mg/kg, route intravenous
# condition.notes: in vivo, read-out: Vdss
property.name: Vd (L/kg)
Express your answer in L/kg, writing the number without its unit.

Prompt: Name the reported Vd value associated with the molecule O=C([O-])c1cccc(Cc2cc(Cl)ccc2OCc2ccc(Cl)cc2F)n1.[Na+]
Completion: 0.6

====

# assay.summary: Drug level in blood of complete Freund's adjuvant-induced rat inflammatory pain model at 1 mg/kg, po administered after 23 hrs of adjuvant challenge measured after 1 hr
# Type: ADME, organism-based
# Set-up: dose 1 mg/kg, route oral
# condition.notes: read-out: Drug uptake
property.name: concentration at 1 h (nM)

P = O=C([O-])c1cccc(Cc2cc(Cl)ccc2OCc2ccc(F)cc2Cl)n1.[Na+]
Q = O=C([O-])c1cccc(Cc2cc(Cl)ccc2OCc2ccc(Cl)cc2F)n1.[Na+]
Prompt: Field: lower concentration at 1 h | Options: P / Q Give the chosen item's label as your response.
Completion: Q

====

# assay.summary: Volume of distribution at steady state in Sprague-Dawley rat at 1 mg/kg administered by intravenous infusion for 1 hr
# Format: ADME, organism-based
# Design: dose 1 mg/kg, route intravenous
# condition.notes: in vivo, read-out: Vdss
property.name: Vd (L/kg)
All answers are understood in L/kg, so give the number only.

Prompt: Need Vd, item O=C([O-])c1cccc(Cc2cc(Cl)ccc2OCc2ccc(Cl)cc2F)n1.[Na+]
Completion: 2.1

====

# assay.summary: Half life in cynomolgus monkey at 1 mg/kg administered by intravenous infusion for 1 hr
# Assay type: ADME, organism-based, Macaca fascicularis
# Set-up: dose 1 mg/kg, route intravenous
# condition.notes: in vivo
property.name: half-life (min)
Enter your answer as a number in min; do not include the unit.

Prompt: Item under review: O=C([O-])c1cccc(Cc2cc(Cl)ccc2OCc2ccc(Cl)cc2F)n1.[Na+] . Reported half-life?
Completion: 36

====

# system.under.test: Prostaglandin E2 receptor EP1 subtype (Homo sapiens)
# Sequence (P34995 whole entry): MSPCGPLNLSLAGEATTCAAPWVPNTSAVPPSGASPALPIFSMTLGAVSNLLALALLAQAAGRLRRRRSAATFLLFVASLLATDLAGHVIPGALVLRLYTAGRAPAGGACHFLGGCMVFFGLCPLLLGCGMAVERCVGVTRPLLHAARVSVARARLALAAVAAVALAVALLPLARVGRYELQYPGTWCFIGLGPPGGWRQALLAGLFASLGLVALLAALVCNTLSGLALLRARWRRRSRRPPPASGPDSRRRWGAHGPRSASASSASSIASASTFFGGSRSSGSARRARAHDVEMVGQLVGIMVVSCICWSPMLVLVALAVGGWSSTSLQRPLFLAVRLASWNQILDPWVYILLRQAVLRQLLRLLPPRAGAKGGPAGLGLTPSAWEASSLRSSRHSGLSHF
# assay.summary: Displacement of [3H]PGE2 from human EP1 receptor expressed in CHO cells
pIC50: −log10 of the molar value.
property.name: pIC50

Consider the worked cases shown below.
- substance.smiles: "O=C([O-])c1cccc(Cc2cc(Cl)ccc2OCc2ccc(Cl)cc2F)n1.[Na+]"
  observed.measurement: 7.90
- substance.smiles: "O=C(O)c1cccc(Cc2cc(Cl)ccc2OCC2CCCCC2)n1"
  observed.measurement: 7.00
- substance.smiles: "O=C(O)c1cccc(Cc2cc(Cl)ccc2OCc2ccccc2F)n1"
  observed.measurement: 7.10
- substance.smiles: "Cc1cc(C(=O)[O-])nn1Cc1cc(Br)ccc1OCc1ccc(Cl)cc1Cl.[Na+]"
  observed.measurement: 9.89

a = O=C(O)c1cccc(Cc2cc(Cl)ccc2OCC2CCCC2)n1
b = O=C(O)c1cccc(Cc2cc(Cl)ccc2OCC2CC2)n1
Prompt: Lower value of pIC50 belongs to which: a or b ? Record your answer as the label of the chosen record.
Completion: b
(b: 6.70, a: 7.50)

a = O=C(O)c1cccc(Cc2cc(Cl)ccc2OCc2ccccc2Cl)n1
b = O=C(O)c1cccc(Cc2cc(Cl)ccc2OCc2ccc(F)cc2)n1
Prompt: // compare: a vs b , metric pIC50, want the smaller // output: label of the selected item
Completion: b
